- assay.comment: Lethal dose to kill 50% of the mice after single ip injection to healthy female CD2F1 mice
- Assay type: toxicity, organism-based
- applied.conditions: CD2F1, mouse, in vivo
Doc: threshold 400 mg/kg (exclusive). Items with LD50 beneath it return rule met; others return rule not met.

                                   molecule      category
0  O=P1(NCCBr)OCCCN1CCCl (stereo not given)  rule not met
1  O=P1(N(CCCl)CCCl)NCCCO1 (stereo not given) [CYCLOPHOSPHAMIDE ANHYDROUS]  rule not met
2  O=P1(NCCCl)OCCCN1CCCl (stereo not given) [IFOSFAMIDE]  rule not met
3                 O=[P@@]1(NCCBr)OCCCN1CCCl      rule met

Read the next record carefully.
Lookup: In plain terms, does O=[P@]1(NCCBr)OCCCN1CCCl come in under 400 mg/kg for LD50?
Found: rule not met
